The measurements presented in this section are drawn from paper PMC10460844.

HC10 values for the compounds below.
- Test system: rat erythrocytes
- Assay details: Hemolysis assay
- Assay type: cell-based
- Condition info: red cells of rat
Counter-ions that a name gives are not always drawn. Square brackets hold non-standard residues; d marks the D form. Peptide text beside a SMILES is read from it. Gly(N(CH2)2(3-indolyl)) = O=C(O)CNCCc1c[nH]c2ccccc12; Nspe = C[C@H](NCC(=O)O)c1ccccc1; Nlys = NCCCCNCC(=O)O
Answer with the number, then the unit.

{"columns": ["Compound", "Test readout", "Result"],
 "data": [
  ["C[C@@H](c1ccccc1)N(CC(=O)N(CCCCN)CC(=O)N(CC(=O)N(CC(=O)N(CCCCN)CC(=O)N(CC(=O)N(CC(=O)N(CCCCN)CC(N)=O)[C@@H](C)c1ccccc1)[C@@H](C)c1ccccc1)[C@@H](C)c1ccccc1)[C@@H](C)c1ccccc1)C(=O)CN(C(=O)CN(CCCCN)C(=O)CN(CCc1c[nH]c2ccccc12)C(=O)CNCCc1c[nH]c2ccccc12)[C@@H](C)c1ccccc1 [peptoid 37] (H-[Gly(N(CH2)2(3-indolyl))][Gly(N(CH2)2(3-indolyl))][Nlys][Nspe][Nspe][Nlys][Nspe][Nspe][Nlys][Nspe][Nspe][Nlys]-NH2)", "HC10", "13.2 µM"]
]}

Please examine the following record next.
Field HC10 (rat erythrocytes), entry C[C@@H](c1ccccc1)N(CC(=O)N(CCCCN)CC(=O)N(CC(=O)N(CC(=O)N(CCCCN)CC(=O)N(CC(=O)N(CC(=O)N(CCCCN)CC(=O)N(CCc1c[nH]c2ccccc12)CC(=O)N(CCc1c[nH]c2ccccc12)CC(N)=O)[C@@H](C)c1ccccc1)[C@@H](C)c1ccccc1)[C@@H](C)c1ccccc1)[C@@H](C)c1ccccc1)C(=O)CN(C(=O)CNCCCCN)[C@@H](C)c1ccccc1 [11-HCl] (H-[Nlys][Nspe][Nspe][Nlys][Nspe][Nspe][Nlys][Nspe][Nspe][Nlys][Gly(N(CH2)2(3-indolyl))][Gly(N(CH2)2(3-indolyl))]-NH2) : 10.1 µM
